# pIC50 annotations
Test Target: purified recombinant Cdc25-C enzyme (MBP-Cdc25C protein) (Homo sapiens)
Experimental Details: Phosphatase activity of the purified recombinant Cdc25C enzyme (OMFP dephosphorylation, fluorescence)
Condition Details: OMFP 500 μM, 4 hours at 30° C.
pIC50: −log10 of the molar value.

Reference set (5 entries):
# Molecule, Experimental Endpoint, Measured
measured = [
    ("CN(CCNC(=O)C1CCN(c2nccc(C(F)(F)F)n2)CC1)CCNc1cc(N2CCCC2)nc(N2CCCC2)n1", "pIC50", "≥ 5.30"),
    ("CN(CCNC(=S)NCC1CCCO1)CCNc1cc(N2CCCC2)nc(N2CCCC2)n1 (centres unmarked)", "pIC50", "≥ 5.30"),
    ("CN(CCNC(=S)Nc1c(F)c(F)c(F)c(F)c1F)CCNc1cc(N2CCCC2)nc(N2CCCC2)n1", "pIC50", "≥ 5.30"),
    ("CN(CCNC(=S)Nc1cccc2ccccc12)CCNc1cc(N2CCCC2)nc(N2CCCC2)n1", "pIC50", "≥ 5.30"),
    ("CN(CCNC(=O)NC1CCCC1)CCNc1cc(N2CCCC2)nc(N2CCCC2)n1", "pIC50", "≥ 5.30"),
]

Identify measured pIC50 associated with CN(CCNC(=S)Nc1ccc(Cl)cc1)CCNc1cc(N2CCCC2)nc(N2CCCC2)n1
≥ 6.00

Identify measured pIC50 associated with CN(CCNC(=S)Nc1ccc([N+](=O)[O-])cc1)CCNc1cc(N2CCCC2)nc(N2CCCC2)n1
≥ 6.00

Identify measured pIC50 associated with COc1cc(NC(=S)NCCN(C)CCNc2cc(N3CCCC3)nc(N3CCCC3)n2)cc(OC)c1OC
≥ 6.00

Identify measured pIC50 associated with CN(CCNC(=O)Nc1cccc2nsnc12)CCNc1cc(N2CCCC2)nc(N2CCCC2)n1
≥ 6.00

Identify measured pIC50 associated with CN(CCNC(=S)Nc1cc(F)cc(F)c1)CCNc1cc(N2CCCC2)nc(N2CCCC2)n1
≥ 5.30

Identify measured pIC50 associated with CN(CCNC(=O)NC(C)(C)C)CCNc1cc(N2CCCC2)nc(N2CCCC2)n1
≥ 5.30

====

# melting point annotations

# Compound, Measured
records = [
    ("CN(CCNC(=S)Nc1ccc(Cl)cc1)CCNc1cc(N2CCCC2)nc(N2CCCC2)n1.Cl", "211 to 213 °C"),
    ("CN(CCNC(=S)Nc1ccc(C(C)(C)C)cc1)CCNc1cc(N2CCCC2)nc(N2CCCC2)n1 [Example 44]", "192 to 194 °C"),
    ("CCNC(=S)NCCN(C)CCNc1cc(N2CCCC2)nc(N2CCCC2)n1 [Example 28]", "82 to 84 °C"),
    ("CC(Oc1ccccc1)C(=O)NCCN(C)CCNc1cc(N2CCCC2)nc(N2CCCC2)n1 (centres unmarked) [Example 84]", "110 to 112 °C"),
    ("CN(CCNC(=S)Nc1cc(F)cc(F)c1)CCNc1cc(N2CCCC2)nc(N2CCCC2)n1 [Example 41]", "124 to 126 °C"),
]

Identify measured melting point associated with CN(CCNC(=S)NCc1ccc(F)cc1)CCNc1cc(N2CCCC2)nc(N2CCCC2)n1 [Example 46]
64 to 66 °C

Identify measured melting point associated with COc1ccc(NC(=S)NCCN(C)CCNc2cc(N3CCCC3)nc(N3CCCC3)n2)cc1 [Example 35]
127 to 129 °C

Identify measured melting point associated with CN(CCNC(=S)Nc1cccnc1Oc1ccc(F)cc1F)CCNc1cc(N2CCCC2)nc(N2CCCC2)n1 [Example 47]
108 to 110 °C

Identify measured melting point associated with CN(CCNC(=S)Nc1ccc(Cl)cc1)CCNc1cc(N2CCCCC2)nc(N2CCCCC2)n1 [Example 69]
76 to 78 °C

Identify measured melting point associated with CN(CCNC(=O)C1CCN(c2nccc(C(F)(F)F)n2)CC1)CCNc1cc(N2CCCC2)nc(N2CCCC2)n1 [Example 86]
171 to 173 °C

====

Test Target: purified recombinant Cdc25-C enzyme (MBP-Cdc25C protein) (Homo sapiens, UniProt P30307)
Sequence (P30307 whole entry): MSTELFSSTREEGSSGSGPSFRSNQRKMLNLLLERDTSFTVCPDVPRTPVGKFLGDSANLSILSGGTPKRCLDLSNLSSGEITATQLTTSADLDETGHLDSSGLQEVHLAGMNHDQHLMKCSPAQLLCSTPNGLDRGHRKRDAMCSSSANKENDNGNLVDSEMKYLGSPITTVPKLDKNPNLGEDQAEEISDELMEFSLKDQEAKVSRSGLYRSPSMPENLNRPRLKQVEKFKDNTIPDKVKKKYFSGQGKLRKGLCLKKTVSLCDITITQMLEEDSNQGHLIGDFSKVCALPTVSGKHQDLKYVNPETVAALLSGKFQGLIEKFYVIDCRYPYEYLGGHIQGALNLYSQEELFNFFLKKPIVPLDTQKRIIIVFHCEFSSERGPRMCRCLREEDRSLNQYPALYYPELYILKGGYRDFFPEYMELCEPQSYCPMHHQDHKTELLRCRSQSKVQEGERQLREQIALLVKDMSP
Experimental Details: Phosphatase activity of the purified recombinant Cdc25C enzyme (OMFP dephosphorylation, fluorescence)
Condition Details: OMFP 500 μM, 4 hours at 30° C.
pIC50: −log10 of the molar value.
# pIC50 annotations

# Smiles Representation, pIC50
measured = [
    ("CN(CCNC(=O)Nc1ccc(Cl)c(C(F)(F)F)c1)CCNc1cc(N2CCCC2)nc(N2CCCC2)n1", "≥ 6.00"),
    ("CSc1ccc(NC(=S)NCCN(C)CCNc2cc(N3CCCC3)nc(N3CCCC3)n2)cc1", "≥ 6.00"),
]

Identify measured pIC50 associated with CN(CCNc1cc(N2CCCC2)nc(N2CCCC2)n1)CCNS(=O)(=O)c1ccc(C(F)(F)F)cc1
≥ 5.30

Identify measured pIC50 associated with CN(CCCNC(=O)Nc1ccc(Cl)c(C(F)(F)F)c1)CCCNc1cc(N2CCCC2)nc(N2CCCC2)n1
≥ 5.30

Identify measured pIC50 associated with CN(CCNC(=S)Nc1cccc(F)c1)CCNc1cc(N2CCCC2)nc(N2CCCC2)n1
≥ 6.00

Identify measured pIC50 associated with CN(CCNC(=O)Nc1ccc(Cl)cc1)CCNc1cc(N2CCCC2)nc(N2CCCC2)n1
≥ 6.00

Identify measured pIC50 associated with CN(CCNC(=O)Nc1ccc(Cl)c(Cl)c1)CCNc1cc(N2CCCC2)nc(N2CCCC2)n1
≥ 6.00

Identify measured pIC50 associated with CN(CCNC(=S)Nc1ccc(S(=O)(=O)Nc2ccccc2)cc1)CCNc1cc(N2CCCC2)nc(N2CCCC2)n1
≥ 6.00

====

Experimental Endpoint: melting point

Reference set (6 entries):
# Smiles Representation, Measured
measured = [
    ("CN(CCNC(=S)Nc1ccc(Oc2ccccc2)cc1)CCNc1cc(N2CCCC2)nc(N2CCCC2)n1", "79 to 81 °C"),
    ("CN(CCNC(=S)Nc1ccc(Oc2ccccc2)nc1)CCNc1cc(N2CCCC2)nc(N2CCCC2)n1", "104 to 106 °C"),
    ("CN(CCNC(=O)Nc1ccc(Cl)c(Cl)c1)CCNc1cc(N2CCCC2)nc(N2CCCC2)n1", "138 to 139 °C"),
    ("CN(CCNc1cc(N2CCCC2)nc(N2CCCC2)n1)CCNS(=O)(=O)c1ccc(C(F)(F)F)cc1", "140 to 142 °C"),
    ("COc1ccc(C(=O)NC(=S)NCCN(C)CCNc2cc(N3CCCC3)nc(N3CCCC3)n2)cc1", "171 to 173 °C"),
    ("CN(CCNC(=O)NC1CCCC1)CCNc1cc(N2CCCC2)nc(N2CCCC2)n1", "119 to 121 °C"),
]

Identify measured melting point associated with CN(CCNc1cc(N2CCCC2)nc(N2CCCC2)n1)CCNS(=O)(=O)c1ccc([N+](=O)[O-])cc1
144 to 145 °C

Identify measured melting point associated with CN(CCNC(=S)Nc1cccc(F)c1)CCNc1cc(N2CCCC2)nc(N2CCCC2)n1
118 to 120 °C

Identify measured melting point associated with CN(CCNC(=O)NC(C)(C)C)CCNc1cc(N2CCCC2)nc(N2CCCC2)n1
107 to 109 °C

Identify measured melting point associated with CN(CCNC(=S)Nc1cccc([N+](=O)[O-])c1)CCNc1cc(N2CCCC2)nc(N2CCCC2)n1
125 to 127 °C

Identify measured melting point associated with S=C(NCCCCCNc1cc(N2CCCC2)nc(N2CCCC2)n1)Nc1ccc(Cl)cc1
80 to 82 °C

Identify measured melting point associated with CN(CCNC(=S)Nc1ccc(Cl)nc1)CCNc1cc(N2CCCC2)nc(N2CCCC2)n1
96 to 98 °C

Identify measured melting point associated with CN(CCNC(=S)Nc1ccc(Cl)cc1)CCNc1cc(N2CCOCC2)nc(N2CCOCC2)n1
81 to 83 °C

Identify measured melting point associated with CN(CCNc1cc(N2CCCC2)nc(N2CCCC2)n1)CCN(C(N)=O)[C@@H]1CCc2ccccc2C1
93 to 95 °C

Identify measured melting point associated with CN(CCNC(=O)NCc1ccccc1)CCNc1cc(N2CCCC2)nc(N2CCCC2)n1
87 to 89 °C

Identify measured melting point associated with CN(CCNC(=O)c1cccc2c1-c1ccccc1C2=O)CCNc1cc(N2CCCC2)nc(N2CCCC2)n1
139 to 140 °C

====

# melting point annotations

Reference set (3 entries):
# Smiles Representation, Experimental Endpoint, Measured
data = [
    ("O=C(NCCOCCNc1cc(N2CCCC2)nc(N2CCCC2)n1)Nc1ccc(Cl)c(C(F)(F)F)c1", "melting point", "79 to 81 °C"),
    ("CN(CCNC(=S)Nc1ccc([N+](=O)[O-])cc1)CCNc1cc(N2CCCC2)nc(N2CCCC2)n1", "melting point", "146 to 148 °C"),
    ("CN(CCCNC(=O)Nc1ccc(Cl)c(C(F)(F)F)c1)CCCNc1cc(N2CCCC2)nc(N2CCCC2)n1.Cl", "melting point", "115 to 117 °C"),
]

Identify measured melting point associated with CN(CCNC(=S)Nc1ccc(S(=O)(=O)Nc2ccccc2)cc1)CCNc1cc(N2CCCC2)nc(N2CCCC2)n1
146 to 148 °C

Identify measured melting point associated with CN(CCNC(=S)Nc1ccc(N(C)C)cc1)CCNc1cc(N2CCCC2)nc(N2CCCC2)n1
127 to 129 °C

Identify measured melting point associated with CN(CCNC(=S)Nc1ccc(N2CCOCC2)nc1)CCNc1cc(N2CCCC2)nc(N2CCCC2)n1
116 to 118 °C

Identify measured melting point associated with CSc1ccc(NC(=S)NCCN(C)CCNc2cc(N3CCCC3)nc(N3CCCC3)n2)cc1
67 to 69 °C

Identify measured melting point associated with CN(CCNC(=S)Nc1ccc(S(N)(=O)=O)cc1)CCNc1cc(N2CCCC2)nc(N2CCCC2)n1
140 °C
